In this section we review reported thermal shift delta Tm values for a set of compounds.
- System: LOC_OS03G50810-cb003
- RUN DESCRIPTION: thermal shift delta Tm vs DMSO control; higher = stronger stabilization (binding);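 also: purified Escherichia coli-expressed rice kinase domain construct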
- REPORTED CONDITIONS: 12.5 µM; protein concentration 2 µM
Kindly provide the numeric value in °C only, without the unit symbol.

{"INPUT SMILES": "O=C1NC(=O)/C(=C/c2ccc3nccc(-c4ccncc4)c3c2)S1", "DATA VALUE": 0.4}
{"INPUT SMILES": "CNC(=O)CN1CCC(Oc2cc3c(Nc4cccc(Cl)c4F)ncnc3cc2OC)CC1", "DATA VALUE": 0.22}
{"INPUT SMILES": "CC(C)CC(=O)Nc1n[nH]c2c1CN(C(=O)C1CCN(C)CC1)C2(C)C", "DATA VALUE": 1.12}

Pending compound:
Notebook: Cc1cc(Nc2ncnc3ccc(-c4ccc(CNCCS(C)(=O)=O)o4)cc23)ccc1Oc1ccn2ncnc2c1 , thermal shift delta Tm read as 1.21

###

- Tested on: LOC_OS03G04050-cb001
- RUN DESCRIPTION: thermal shift delta Tm vs DMSO control; higher = stronger stabilization (binding)
- REPORTED CONDITIONS: 12.5 µM; protein concentration 2 µM
Values of thermal shift delta Tm greater than or equal to 0.4 °C map to yes; values below map to no.

Example entries and their recorded answers appear below.
{"COMPOUND": "CO[C@@H](C)Cn1c(=O)n(C)c2cnc3ccc(-c4cncc(C(C)(C)O)c4)cc3c21", "ANSWER LABEL": "yes"}
{"COMPOUND": "O=C1NC(=O)C(=Cc2ccc(-c3ccc(F)cc3)o2)S1 (stereo in doubt)", "ANSWER LABEL": "yes"}
{"COMPOUND": "CCS(=O)(=O)N1CC(CC#N)(n2cc(-c3ncnc4[nH]ccc34)cn2)C1", "ANSWER LABEL": "yes"}
{"COMPOUND": "Cc1ccc(Nc2cc(N[C@@H]3CCCC[C@@H]3N)nnc2C(N)=O)nc1C", "ANSWER LABEL": "yes"}
{"COMPOUND": "C=CC(=O)Nc1ccc(CN2C(=O)N(c3cc(OC)cc(OC)c3)Cc3cnc(Nc4ccc(N5CCN(C)CC5)cc4)nc32)cc1", "ANSWER LABEL": "yes"}

Query: Item COc1cc(N2CCN(C)CC2)ccc1Nc1nccc(-c2cn(C)c3cnccc23)n1 with thermal shift delta Tm of 0.4 °C or above?
Reply: no

Query: Item CSc1cccc(Nc2ncc3cc(-c4c(Cl)cccc4Cl)c(=O)n(C)c3n2)c1 with thermal shift delta Tm of 0.4 °C or above?
Reply: yes

Query: Item Oc1ccc(Nc2nc(-c3ccc(Cl)cc3)cs2)cc1 with thermal shift delta Tm of 0.4 °C or above?
Reply: yes

Query: Item CCn1c(-c2nonc2N)nc2cnc(Oc3cccc(NC(=O)c4ccc(OCCN5CCOCC5)cc4)c3)cc21 with thermal shift delta Tm of 0.4 °C or above?
Reply: no

Query: Item Cc1c[nH]c(/C=C2\C(=O)Nc3ccccc32)c1CCC(=O)O with thermal shift delta Tm of 0.4 °C or above?
Reply: no

Query: Item CN1C(=O)[C@@H](NC(=O)c2n[nH]c(Cc3ccccc3)n2)COc2ccccc21 with thermal shift delta Tm of 0.4 °C or above?
Reply: yes
